Source of measurements: ChEMBL document CHEMBL3997811

Please go through the items and note down their inhibition.
Tested on: Matrix protein 2 (Influenza A virus (A/Udorn/307/1972(H3N2))), P0DOF8 [S31N]
Test: Inhibition of Influenza A virus amantadine-resistant M2 proton channel S31N mutant expressed in Xenopus laevis oocyte at 100 uM at pH 5.5 after 2 mins by two-electrode patch clamp assay relative to control
State the value with its unit after it.

{"MOL": "Clc1cc(-c2cc(CNC34CC5CC(CC(C5)C3)C4)no2)c(Cl)s1", "ASSAYED_TARGET": "Matrix protein 2 (Influenza A virus (A/Udorn/307/1972(H3N2))), P0DOF8 [S31N]", "REPORTED_RESULT": "87.7%"}
{"MOL": "COc1ccc(-c2cc(CNC34CC5CC(CC(C5)C3)C4)no2)cn1", "ASSAYED_TARGET": "Matrix protein 2 (Influenza A virus (A/Udorn/307/1972(H3N2))), P0DOF8 [S31N]", "REPORTED_RESULT": "58%"}
{"MOL": "c1ccc(-c2ccc(-c3cc(CNC45CC6CC(CC(C6)C4)C5)no3)cc2)cc1", "ASSAYED_TARGET": "Matrix protein 2 (Influenza A virus (A/Udorn/307/1972(H3N2))), P0DOF8 [S31N]", "REPORTED_RESULT": "45.6%"}
{"MOL": "CSc1cccc(-c2cc(CNC34CC5CC(CC(C5)C3)C4)no2)c1", "ASSAYED_TARGET": "Matrix protein 2 (Influenza A virus (A/Udorn/307/1972(H3N2))), P0DOF8 [S31N]", "REPORTED_RESULT": "69.6%"}
{"MOL": "NC(=O)c1ccc(-c2cc(CNC34CC5CC(CC(C5)C3)C4)no2)cc1", "ASSAYED_TARGET": "Matrix protein 2 (Influenza A virus (A/Udorn/307/1972(H3N2))), P0DOF8 [S31N]", "REPORTED_RESULT": "47.4%"}
{"MOL": "CSc1ccccc1-c1cc(CNC23CC4CC(CC(O)(C4)C2)C3)no1", "ASSAYED_TARGET": "Matrix protein 2 (Influenza A virus (A/Udorn/307/1972(H3N2))), P0DOF8 [S31N]", "REPORTED_RESULT": "90.6%"}
{"MOL": "Clc1ccc(-c2cc(CNC34CC5CC(CC(C5)C3)C4)no2)s1", "ASSAYED_TARGET": "Matrix protein 2 (Influenza A virus (A/Udorn/307/1972(H3N2))), P0DOF8 [S31N]", "REPORTED_RESULT": "78.8%"}
{"MOL": "CN(C)c1ccc(-c2cc(CNC34CC5CC(CC(C5)C3)C4)no2)cc1", "ASSAYED_TARGET": "Matrix protein 2 (Influenza A virus (A/Udorn/307/1972(H3N2))), P0DOF8 [S31N]", "REPORTED_RESULT": "83.2%"}
{"MOL": "c1ccc2c(-c3cc(CNC45CC6CC(CC(C6)C4)C5)no3)cccc2c1", "ASSAYED_TARGET": "Matrix protein 2 (Influenza A virus (A/Udorn/307/1972(H3N2))), P0DOF8 [S31N]", "REPORTED_RESULT": "56.8%"}
{"MOL": "N#Cc1ccc(-c2cc(CNC34CC5CC(CC(C5)C3)C4)no2)cc1", "ASSAYED_TARGET": "Matrix protein 2 (Influenza A virus (A/Udorn/307/1972(H3N2))), P0DOF8 [S31N]", "REPORTED_RESULT": "72.2%"}

Below are some compounds; for each one, tell me its inhibition.
1. OC12CC3CC(C1)CC(NCc1cc(-c4cc(Cl)sc4Cl)on1)(C3)C2
2. FC(F)(F)Oc1cccc(-c2cc(CNC34CC5CC(CC(C5)C3)C4)no2)c1
3. c1cncc(-c2cc(CNC34CC5CC(CC(C5)C3)C4)no2)c1
4. Oc1ccccc1-c1cc(CNC23CC4CC(CC(C4)C2)C3)no1
5. COC(=O)c1ccc(-c2cc(CNC34CC5CC(CC(C5)C3)C4)no2)cc1
6. CS(=O)(=O)c1ccccc1-c1cc(CNC23CC4CC(CC(C4)C2)C3)no1

89.9%
56.7%
53%
71.5%
73.6%
9.8%

Give inhibition for each listed item.
1. COc1sccc1-c1cc(CNC23CC4CC(CC(C4)C2)C3)no1
2. COc1ccccc1-c1cc(CNC23CC4CC(CC(C4)C2)C3)no1

94.2%
51.8%

For every item below, please supply its inhibition.
1. Clc1cc(-c2cc(CNC34CC5CC(CC(C5)C3)C4)no2)cs1
2. OC12CC3CC(C1)CC(NCc1cc(-c4ccccc4Cl)on1)(C3)C2

["87.9%", "87.1%"]
